Test: Oral bioavailability in rat at 10 mg/kg
Type: ADME, organism-based
Details: in vivo
Recorded Endpoint: bioavailability (%)
Give just the numeric value; % need not be written.

// query So what does the record say about bioavailability for Cl.O=C1c2ccccc2C(=O)c2c1cccc2-c1cnn(C2CCNCC2)c1 ?
// result 63.6

---

Experiment: AUCt in rat at 10 mg/kg, po
Assay type: ADME, organism-based
Conditions: in vivo
Recorded Endpoint: AUC(0-t) (ng·h/mL)
Give just the numeric value; ng·h/mL need not be written.

// query So what does the record say about AUC(0-t) for Cl.O=C1c2ccccc2C(=O)c2c1cccc2-c1cnn(C2CCNCC2)c1 ?
// result 8920
